Where do the numbers come from? From patent EP3625243B1.

target_desc: HTRA1 (Homo sapiens)
Sequence (Q92743 158-480): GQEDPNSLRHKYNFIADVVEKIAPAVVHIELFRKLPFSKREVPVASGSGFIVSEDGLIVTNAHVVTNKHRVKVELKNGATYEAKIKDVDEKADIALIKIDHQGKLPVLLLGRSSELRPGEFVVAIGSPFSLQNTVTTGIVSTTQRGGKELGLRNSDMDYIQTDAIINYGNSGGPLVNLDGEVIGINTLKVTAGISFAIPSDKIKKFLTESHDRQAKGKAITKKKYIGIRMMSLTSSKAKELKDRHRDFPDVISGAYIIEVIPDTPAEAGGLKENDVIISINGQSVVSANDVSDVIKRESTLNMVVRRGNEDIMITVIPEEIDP
procedure_details: Chromogenic enzyme activity assay, HTRA1
Catalogue of pKi values
// pKi is dimensionless: -log10 of concentration (M)

Example entries begin here.
{"smiles_data": "CCC[C@@H]1NC(=O)[C@@H](NC(=O)[C@H](C)NC(=O)[C@H](C)NC(=O)OCc2ccccc2)[C@@H](C)OC(=O)[C@H](C(C)C)NC(=O)[C@H](Cc2ccccc2)N(C)C(=O)[C@H](CC(C)C)N2C(=O)[C@H](CC[C@H]2O)NC1=O", "pKi": 5.15}
{"smiles_data": "CC(C)C[C@H]1C(=O)N(C)[C@@H](Cc2ccccc2)C(=O)N[C@@H](C(C)C)C(=O)O[C@H](C)[C@H](NC(=O)[C@H](C)NC(=O)[C@H](C)NC(=O)OCc2ccccc2)C(=O)N[C@@H](C)C(=O)N[C@H]2CC[C@@H](O)N1C2=O", "pKi": 5.37}
{"smiles_data": "CC(C)C[C@H]1C(=O)N(C)[C@@H](Cc2ccccc2)C(=O)N[C@@H](C(C)C)C(=O)O[C@H](C(C)C)[C@H](NC(=O)[C@H](C)NC(=O)[C@H](C)NC(=O)OCc2ccccc2)C(=O)N[C@@H](C(C)C)C(=O)N[C@H]2CC[C@@H](O)N1C2=O", "pKi": 5.62}
{"smiles_data": "CC(C)C[C@H]1C(=O)N(C)[C@@H](Cc2ccccc2)C(=O)N[C@@H](C(C)C)C(=O)O[C@H](C)[C@H](NC(=O)[C@H](C)NC(=O)[C@H](C)NC(=O)OCc2ccccc2)C(=O)N[C@@H](C(C)C)C(=O)N[C@H]2CC[C@@H](O)N1C2=O", "pKi": 5.09}

For the next question, use this molecule.
Q: Would you kindly share the measured pKi for CC[C@@H]1NC(=O)[C@@H](NC(=O)[C@H](C)NC(=O)[C@H](C)NC(=O)OCc2ccccc2)[C@@H](C)OC(=O)[C@H](C(C)C)NC(=O)[C@H](Cc2ccccc2)N(C)C(=O)[C@H](CC(C)C)N2C(=O)[C@H](CC[C@H]2O)NC1=O ?
Result: 5.53

* * *

target_desc: HTRA3 (Homo sapiens)
Sequence (P83110 111-436): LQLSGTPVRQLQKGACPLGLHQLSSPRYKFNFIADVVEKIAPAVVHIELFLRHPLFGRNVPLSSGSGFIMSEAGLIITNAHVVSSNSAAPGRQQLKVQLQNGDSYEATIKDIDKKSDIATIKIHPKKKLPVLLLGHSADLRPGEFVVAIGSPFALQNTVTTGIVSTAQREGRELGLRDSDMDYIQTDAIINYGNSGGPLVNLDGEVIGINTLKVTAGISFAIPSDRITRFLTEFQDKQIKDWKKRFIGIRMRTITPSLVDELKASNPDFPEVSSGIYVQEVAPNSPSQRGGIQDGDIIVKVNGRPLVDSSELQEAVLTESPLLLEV
procedure_details: Chromogenic enzyme activity assay, HTRA3
readout_name: pKi
// pKi is dimensionless: -log10 of concentration (M)

{"smiles_data": "CC(C)C[C@H]1C(=O)N(C)[C@@H](Cc2ccccc2)C(=O)N[C@@H](C(C)C)C(=O)O[C@H](C)[C@H](NC(=O)[C@H](C)NC(=O)[C@H](C)NC(=O)OCc2ccccc2)C(=O)N[C@@H](C)C(=O)N[C@H]2CC[C@@H](O)N1C2=O", "target_desc": "HTRA3 (Homo sapiens)", "readout_name": "pKi", "value_measured": 6.01}

Q: Please state recorded pKi (tested on HTRA3 (Homo sapiens)) of CC(C)C[C@H]1C(=O)N(C)[C@@H](Cc2ccccc2)C(=O)N[C@@H](C(C)C)C(=O)O[C@H](C(C)C)[C@H](NC(=O)[C@H](C)NC(=O)[C@H](C)NC(=O)OCc2ccccc2)C(=O)N[C@@H](C(C)C)C(=O)N[C@H]2CC[C@@H](O)N1C2=O
Result: 6.32

* * *

target_desc: HTRA2 (Homo sapiens)
Sequence (O43464 134-458): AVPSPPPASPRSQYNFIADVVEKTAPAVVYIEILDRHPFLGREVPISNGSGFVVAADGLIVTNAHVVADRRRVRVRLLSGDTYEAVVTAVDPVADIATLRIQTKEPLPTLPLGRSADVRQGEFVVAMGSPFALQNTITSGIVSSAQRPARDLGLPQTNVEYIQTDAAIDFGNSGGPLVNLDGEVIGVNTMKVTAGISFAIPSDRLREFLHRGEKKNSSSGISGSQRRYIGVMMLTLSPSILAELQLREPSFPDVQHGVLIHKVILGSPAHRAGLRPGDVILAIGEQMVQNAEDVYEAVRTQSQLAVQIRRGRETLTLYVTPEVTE
procedure_details: Chromogenic enzyme activity assay, HTRA2
readout_name: pKi
// pKi is dimensionless: -log10 of concentration (M)

{"smiles_data": "CCC[C@@H]1NC(=O)[C@@H](NC(=O)[C@H](C)NC(=O)[C@H](C)NC(=O)OCc2ccccc2)[C@@H](C)OC(=O)[C@H](C(C)C)NC(=O)[C@H](Cc2ccccc2)N(C)C(=O)[C@H](CC(C)C)N2C(=O)[C@H](CC[C@H]2O)NC1=O", "value_measured": 6.16}
{"smiles_data": "CC(C)C[C@H]1C(=O)N(C)[C@@H](Cc2ccccc2)C(=O)N[C@@H](C(C)C)C(=O)O[C@H](C(C)C)[C@H](NC(=O)[C@H](C)NC(=O)[C@H](C)NC(=O)OCc2ccccc2)C(=O)N[C@@H](C(C)C)C(=O)N[C@H]2CC[C@@H](O)N1C2=O", "value_measured": 6.59}
{"smiles_data": "CC(C)C[C@H]1C(=O)N(C)[C@@H](Cc2ccccc2)C(=O)N[C@@H](C(C)C)C(=O)O[C@H](C)[C@H](NC(=O)[C@H](C)NC(=O)[C@H](C)NC(=O)OCc2ccccc2)C(=O)N[C@@H](C(C)C)C(=O)N[C@H]2CC[C@@H](O)N1C2=O", "value_measured": 5.39}
{"smiles_data": "CC(C)C[C@H]1C(=O)N(C)[C@@H](Cc2ccccc2)C(=O)N[C@@H](C(C)C)C(=O)O[C@H](C)[C@H](NC(=O)[C@H](C)NC(=O)[C@H](C)NC(=O)OCc2ccccc2)C(=O)N[C@@H](C)C(=O)N[C@H]2CC[C@@H](O)N1C2=O", "value_measured": 6.59}
{"smiles_data": "C=CC[C@@H]1NC(=O)[C@@H](NC(=O)[C@H](C)NC(=O)[C@H](C)NC(=O)OCc2ccccc2)[C@@H](C)OC(=O)[C@H](C(C)C)NC(=O)[C@H](Cc2ccccc2)N(C)C(=O)[C@H](CC(C)C)N2C(=O)[C@H](CC[C@H]2O)NC1=O", "value_measured": 5.86}

For the next question, use this compound.
Q: Would you kindly share the measured pKi for CC(C)C[C@H]1C(=O)N(C)[C@@H](C)C(=O)N[C@@H](C(C)C)C(=O)O[C@H](C)[C@H](NC(=O)[C@H](C)NC(=O)[C@H](C)NC(=O)OCc2ccccc2)C(=O)N[C@@H](C(C)C)C(=O)N[C@H]2CC[C@@H](O)N1C2=O ?
Result: 5.16
